- target_or_test_system: T1, purified recombinant RSV-Ga protein (Sino Biologics) (Respiratory Syncytial Virus subtype A, …, UniProt P03423 64-298)
- T1 sequence: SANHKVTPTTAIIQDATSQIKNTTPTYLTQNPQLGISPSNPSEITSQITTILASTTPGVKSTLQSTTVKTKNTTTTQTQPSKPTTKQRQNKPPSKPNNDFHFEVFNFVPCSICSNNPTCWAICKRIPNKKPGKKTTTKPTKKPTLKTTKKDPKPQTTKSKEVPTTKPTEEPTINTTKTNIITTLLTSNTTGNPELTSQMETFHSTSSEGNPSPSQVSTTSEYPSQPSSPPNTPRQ
- experimental_protocol: SPR (IBIS MX96), IgG captured on anti-human IgG, RSV Ga injected
metric_name: kon (M⁻¹ s⁻¹)
Provide the reading as a plain figure in M⁻¹ s⁻¹.

According to the records, this binder AT40 (antibody, V domains shown) VH: QVQLVESGGGVVQPGMSHRLSCAASTLIFDRHALHWVRQAPGAGLEWVAILSYDGTTDYYADSVKGRFTVSRDTSKNTVFLQMNGLRPQDTAVYYCARGRALDDFADYGGYYFDYWGQGILVTVSS VL: DIQMTQSPSSVSASVGDKVTITCRASQGISTWLAWYQQKPGKAPALLIYSASRLQSGVPSRFSGSGSGTDFTLTISSLQPEDYATYYCQQANTFPFTFGPGTKVDIKR displays kon of 350000
